The origin of these recorded values is PubChem BioAssay (NCI).

Tested on: U251 CNS
Assay overview: NCI tumour cell line growth inhibition, 48 h
Attribute measured: log10 of TGI (log10 of the value in µM)

• CC(=O)[CH-]C(C)=O.CC(=O)[CH-]C(C)=O.[Cl-].[O]=[V] = 1.77
• O=C1NC(=NCc2ccc(F)cc2)N/C1=C\c1ccccc1Cl = 1.48
• COc1cc2c(cc1O)c(=O)n(CCN(C)C)c1c3cc4c(cc3ncc21)OCO4 = -1.37
• O=c1c(C(c2ccc([N+](=O)[O-])cc2)c2c(O)c3ccccc3n(-c3ccccc3)c2=O)c(O)c2ccccc2n1-c1ccccc1 = 1.88
• CCCCc1n(Cc2ccc3ccccc3n2)cc[n+]1Cc1ccc2ccccc2n1 = 1.09
• O=C1c2ccccc2C(=O)c2c1oc1c2c(=O)[nH]c2ccc(Cl)cc21 = -0.12
